Reference source: PubChem BioAssay AID1159580

# protocol.description: chemical genetic growth profiling, strain panel (AID 1159580);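 further: tested at 20 µM; growth read once vehicle control cultures reached saturation at 30 °C; 1 = growth at the plate median or of vehicle wells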
# experimental.setup: S. cerevisiae deletion strains, growth OD, locus YML032C, strain rad52
The campaign covered roughly 5,500 compounds. About 2,000 (36%) were called active. Inconclusive results (about 18%) are left out. No stated cut-off is given here; in the data, active means normalized growth mostly below about 0.91 (no sharp cut-off); inconclusive means no clear call, values can overlap the other calls; inactive means mostly above about 0.92. The list shows a part of the results.
Give your call using only these classes: active, inactive

Worked examples, 5 compounds total:
[
  {
    "compound": "Cc1ccc(C(=O)C(C)CN2CCCCC2)cc1 (stereo unspecified)",
    "class": "inactive"
  },
  {
    "compound": "C=C(C)/C=C1/C=CC(=O)C(C)=C1",
    "class": "active"
  },
  {
    "compound": "C=CC1=C(C(=O)O)N2C(=O)[C@@H](NC(=O)/C(=N/O)c3csc(N)n3)[C@H]2SC1",
    "class": "inactive"
  },
  {
    "compound": "COc1ccc(-c2coc3c(OC)c(OC)ccc3c2=O)cc1",
    "class": "inactive"
  },
  {
    "compound": "COc1ccc(C[C@H]2NC[C@H](O)[C@H]2OC(C)=O)cc1",
    "class": "active"
  }
]

Ask: Could you check what this test reported for COC(=O)c1c(Cl)c(Cl)c(C(=O)OC)c(Cl)c1Cl ?
Result: inactive

Ask: Could you check what this test reported for N#Cc1c(Cl)c(Cl)c(Cl)c(C#N)c1Cl ?
Result: inactive

Ask: Could you check what this test reported for CCC(C(N)=O)c1ccccc1 (stereo unspecified) ?
Result: inactive

Ask: Could you check what this test reported for NC/C=C/C(=O)O ?
Result: inactive

Ask: Could you check what this test reported for NC[C@@H]1O[C@H](O[C@@H]2[C@@H](CO)OC(O[C@@H]3[C@@H](O)[C@H](N)C[C@H](N)[C@H]3OC3O[C@H](CN)[C@@H](O)[C@H](O)[C@H]3N)[C@@H]2O)[C@H](N)[C@@H](O)[C@@H]1O (stereo partly specified) ?
Result: inactive

Ask: Could you check what this test reported for O=C(O)c1ccccc1OP(=O)(O)O ?
Result: inactive

* * *

Please go through the items and note down their normalized growth.
# protocol.description: chemical genetic growth profiling, strain panel (AID 1159580);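 further: tested at 20 µM; growth read once vehicle control cultures reached saturation at 30 °C; 1 = growth at the plate median or of vehicle wells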
# experimental.setup: S. cerevisiae deletion strains, growth OD, locus YLR342W, strain FKS1 (second series), stronger effect = lower value
The whole screen tested about 5,500 compounds, of which about 2,000 (36%) were called active. Another 18% or so got no clear call; they are omitted. The list shows a part of the results.
Answers are plain numbers.

Below, each entry is followed by its recorded normalized growth result.
[
  {
    "compound": "COc1ccc(-c2c(O)c3cc4c(c(CC=C(C)C)c3oc2=O)OC(C)(C)CC4)cc1",
    "recorded.result": 1.02
  },
  {
    "compound": "C=CC1=C(C(=O)O)N2C(=O)[C@@H](NC(=O)/C(=N/O)c3csc(N)n3)[C@H]2SC1",
    "recorded.result": 1.02
  },
  {
    "compound": "CCOC(=O)/C=C(\\C)OP(=O)(OC)OC",
    "recorded.result": 1.02
  }
]

Return reported normalized growth values for all items listed beneath this line.
1. CC(=O)O[C@]1(C(C)=O)CCC2C3C=C(C)C4=CC(=O)CCC4(C)C3CCC21C (stereo not given in full)
2. COc1c2c(c(CC=C(C)C)c3oc(=O)c(-c4ccc(O)cc4)c(O)c13)OC(C)(C)C=C2

Result:
1. 0.759
2. 0.812
